// data source = patent US11566007B2

biological target: KRAS G12V (Homo sapiens (Human), UniProt P01116+P62937, G12V); assay: Ras-Raf (BRAF RBD) disruption / FRET / MOA assay, KRAS G12V; format: biochemical; conditions: read-out: IC50* KRAS G12V FRET data
Sequence (P01116-2 other isoform, or with tags, fused parts or gaps G12V): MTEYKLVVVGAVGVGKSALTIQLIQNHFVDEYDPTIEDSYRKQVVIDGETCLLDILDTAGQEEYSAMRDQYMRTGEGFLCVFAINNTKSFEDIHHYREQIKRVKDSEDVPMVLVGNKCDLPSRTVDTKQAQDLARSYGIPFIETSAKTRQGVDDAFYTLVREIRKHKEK
Sequence (P62937 whole entry): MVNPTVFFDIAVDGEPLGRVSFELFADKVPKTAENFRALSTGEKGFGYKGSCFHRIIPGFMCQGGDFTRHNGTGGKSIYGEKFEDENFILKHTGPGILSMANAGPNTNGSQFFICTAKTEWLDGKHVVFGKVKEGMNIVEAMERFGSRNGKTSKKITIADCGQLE
assay.readout: IC50

>  <compound>
CCn1c(-c2cccnc2COC)c2c3cc(ccc31)-c1cc(O)cc(c1)C[C@H](NC(=O)[C@H](C(C)C)N(C)C(=O)[C@H]1CCN(C(=O)C#CCN3[C@H](C)COC[C@@H]3C)C1)C(=O)N1CCC[C@H](N1)C(=O)OCC(C)(C)C2

>  <measurement>
0.1 to 1 µM

$$$$
>  <compound>
C=CC(=O)N1CC[C@H](C(=O)N(C)[C@H](C(=O)N[C@H]2Cc3cccc(c3)-c3ccc4c(c3)c(c(-c3cccnc3[C@H](C)OC)n4CC)CC(C)(C)COC(=O)[C@@H]3CCCN(N3)C2=O)C(C)C)[C@H]1C (atropisomer, axis not shown)

>  <measurement>
0.1 to 1 µM

$$$$
>  <compound>
C=CC(=O)N1CC[C@H](C(=O)N(C)[C@H](C(=O)N[C@H]2Cc3cc(O)cc(c3)-c3ccc4c(c3)c(c(-c3cc(C#N)cnc3COC)n4CC)CC(C)(C)COC(=O)[C@@H]3CCCN(N3)C2=O)C(C)C)C1

>  <measurement>
0.1 to 1 µM

$$$$
>  <compound>
CCn1c(-c2cccnc2)c2c3cc(ccc31)-c1cc(O)cc(c1)C[C@H](NC(=O)[C@H](C(C)C)N(C)C(=O)[C@H]1CCN(C(=O)C#CCN(C)C)C1)C(=O)N1CCC[C@H](N1)C(=O)OCC(C)(C)C2

>  <measurement>
> 10 µM

$$$$
>  <compound>
CCn1c(-c2cccnc2[C@H](C)OC)c2c3cc(ccc31)-c1cc(O)cc(c1)C[C@H](NC(=O)[C@H](C(C)C)N(C)C(=O)N1CCN(C(=O)/C=C/CN(C)C)CC1)C(=O)N1CCC[C@H](N1)C(=O)OCC(C)(C)C2 (atropisomer, axis not shown)

>  <measurement>
0.1 to 1 µM

$$$$
>  <compound>
CCn1c(-c2cccnc2[C@H](C)OC)c2c3cc(ccc31)-c1nsc(n1)C[C@H](NC(=O)[C@H](C(C)C)N(C)C(=O)[C@H]1CCN(C(=O)C#CCN3CCOCC3)C1)C(=O)N1CCC[C@H](N1)C(=O)OCC(C)(C)C2 (atropisomer, axis not shown)

>  <measurement>
> 10 µM

$$$$
>  <compound>
C=CC(=O)N1CCO[C@]2(CCN(C(=O)N(C)[C@H](C(=O)N[C@H]3Cc4nc(cs4)-c4ccc5c(c4)c(c(-c4cccnc4[C@H](C)OC)n5CC(F)(F)F)CC(C)(C)COC(=O)[C@@H]4CCCN(N4)C3=O)C(C)C)C2)C1 (atropisomer, axis not shown)

>  <measurement>
1 to 10 µM

$$$$

(Q) Which IC50 is listed for C=CC(=O)N1CCC2(C1)OCN([C@H](C(=O)N[C@H]1Cc3cccc(c3)-c3ccc4c(c3)c(c(-c3cccnc3[C@H](C)OC)n4CC)CC(C)(C)COC(=O)[C@@H]3CCCN(N3)C1=O)C(C)C)C2=O (some centres unmarked) ?
(A) 1 to 10 µM

----------
A collection of compounds and their measured pIC50
target: K-Ras G13C (Homo sapiens (Human), UniProt P01116+P62937, G13C); assay: Ras-Raf (BRAF RBD) disruption / FRET / MOA assay, KRAS G13C; assay type: biochemical; conditions: KRAS G13C; Ras-Raf disruption/FRET/MOA assay; read-out: IC50* KRAS G13C FRET data
Sequence (P01116-2 other isoform, or with tags, fused parts or gaps G13C): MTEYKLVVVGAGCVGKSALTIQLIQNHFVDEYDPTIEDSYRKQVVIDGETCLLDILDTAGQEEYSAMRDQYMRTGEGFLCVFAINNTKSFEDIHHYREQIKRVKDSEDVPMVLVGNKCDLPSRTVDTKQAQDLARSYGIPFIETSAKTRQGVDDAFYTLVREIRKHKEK
Sequence (P62937 whole entry): as the sequence (P62937 whole entry) above
pIC50: −log10 of the molar value.

>  <compound>
CCn1c(-c2cccnc2[C@H](C)OC)c2c3cc(ccc31)-c1cc(O)cc(c1)C[C@H](NC(=O)[C@H](C(C)C)N1CC[C@@]3(CCN(C(=O)/C=C/CN(C)C)C3)C1=O)C(=O)N1CCC[C@H](N1)C(=O)OCC(C)(C)C2 (atropisomer, axis not shown)

>  <assay.readout>
pIC50

>  <measurement>
6.00 to 7.00

$$$$

(Q) Entry CCn1c(-c2cccnc2[C@H](C)OC)c2c3cc(ccc31)-c1csc(n1)C[C@H](NC(=O)CCO[C@@H]1CCN(C(=O)C#CC(C)(C)N3CCC3)C1)C(=O)N1CCC[C@H](N1)C(=O)OCC(C)(C)C2 (atropisomer, axis not shown) has what pIC50?
(A) 6.00 to 7.00

----------
target: KRAS G13D (Homo sapiens (Human), UniProt P01116+P62937, G13D); assay: Ras-Raf (BRAF RBD) disruption / FRET / MOA assay, KRAS G13D; type: biochemical; conditions: read-out: IC50* KRAS G13D FRET data
Sequence (P01116-2 other isoform, or with tags, fused parts or gaps G13D): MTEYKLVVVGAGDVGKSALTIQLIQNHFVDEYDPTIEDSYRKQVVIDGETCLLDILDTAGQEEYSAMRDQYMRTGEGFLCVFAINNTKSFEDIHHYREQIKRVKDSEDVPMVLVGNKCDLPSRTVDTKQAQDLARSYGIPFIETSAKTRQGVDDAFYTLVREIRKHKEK
Sequence (P62937 whole entry): as the sequence (P62937 whole entry) above
IC50 values by entry

>  <molecule>
CCn1c(-c2cccnc2[C@H](C)OC)c2c3cc(ccc31)-c1cccc(c1)C[C@H](NC(=O)[C@H](C(C)C)N(C)C(=O)[C@H]1CCN(C(=O)C#CC3(N(C)C)CCOC3)C1)C(=O)N1CCC[C@H](N1)C(=O)OCC(C)(C)C2 (stereo partly shown)

>  <study.target>
KRAS G13D (Homo sapiens (Human), UniProt P01116+P62937, G13D)

>  <IC50>
> 10 µM

$$$$
>  <molecule>
C=CC(=O)N1CC(OCC(C(=O)N[C@H]2Cc3cc(cc(C(F)F)c3)-c3ccc4c(c3)c(c(-c3cccnc3[C@H](C)OC)n4CC)CC(C)(C)COC(=O)[C@@H]3CCCN(N3)C2=O)C(C)C)C1 (mixture of isomers)

>  <study.target>
KRAS G13D (Homo sapiens (Human), UniProt P01116+P62937, G13D)

>  <IC50>
> 10 µM

$$$$
>  <molecule>
C=CC(=O)N1CC[C@H](C(=O)N(C)[C@H](C(=O)N[C@H]2Cc3csc(n3)-c3ccc4c(c3)c(c(-c3cccnc3[C@H](C)OC)n4CC(F)(F)F)CC(C)(C)COC(=O)[C@@H]3CCCN(N3)C2=O)C(C)C)C1 (atropisomer, axis not shown)

>  <study.target>
KRAS G13D (Homo sapiens (Human), UniProt P01116+P62937, G13D)

>  <IC50>
1 to 10 µM

$$$$

Now look at this one.
(Q) Name the reported IC50 value associated with the molecule C=CC(=O)N1CC[C@H](C(=O)N(C)[C@H](C(=O)N[C@H]2Cc3nc(cs3)-c3ccc4c(c3)c(c(-c3cccnc3[C@H](C)OC)n4CC)CC(C)(C)C/C=C/[C@@H]3CCCN(N3)C2=O)C(C)C)C1 (atropisomer, axis not shown)
(A) > 10 µM

----------
target: NRAS G12C (Homo sapiens (Human), UniProt P01111+P62937, G12C); test: Ras-Raf (BRAF RBD) disruption / FRET / MOA assay, NRAS G12C; type: biochemical; conditions: read-out: IC50* NRAS G12C FRET data
Sequence (P01111 whole entry G12C): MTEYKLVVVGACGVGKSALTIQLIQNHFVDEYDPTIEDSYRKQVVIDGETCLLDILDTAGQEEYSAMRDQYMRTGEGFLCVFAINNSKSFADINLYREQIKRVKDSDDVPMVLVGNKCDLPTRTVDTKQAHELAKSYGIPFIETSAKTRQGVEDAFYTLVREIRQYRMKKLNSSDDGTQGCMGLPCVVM
Sequence (P62937 whole entry): as the sequence (P62937 whole entry) above
assay.readout: IC50

Before answering, review these 7 worked examples.
>  <molecule>
C=CC(=O)N1CCC2(C1)OCN([C@H](C(=O)N[C@H]1Cc3cccc(c3)-c3ccc4c(c3)c(c(-c3cccnc3[C@H](C)OC)n4CC)CC(C)(C)COC(=O)[C@@H]3CCCN(N3)C1=O)C(C)C)C2=O (some centres unmarked) [Example A459]

>  <assay.readout>
IC50

>  <measurement>
0.01 to 0.1 µM

$$$$
>  <molecule>
CCn1c(-c2cccnc2[C@H](C)OC)c2c3cc(ccc31)-c1cccc(c1)C[C@H](NC(=O)[C@H](C(C)C)N1CC[C@]3(CCN(C(=O)C#C[C@@]4(N(C)C)CCOC4)C3)C1=O)C(=O)N1CCC[C@H](N1)C(=O)OCC(C)(C)C2 (atropisomer, axis not shown) [Example A560]

>  <assay.readout>
IC50

>  <measurement>
0.01 to 0.1 µM

$$$$
>  <molecule>
C=CC(=O)N1CCN(C(=O)N(C)[C@H](C(=O)N[C@H]2Cc3cc(O)cc(c3)-c3ccc4c(c3)c(c(-c3ccccc3CCOC)n4CC)CC(C)(C)COC(=O)[C@@H]3CCCN(N3)C2=O)C(C)C)C[C@H]1COC [Example A146]

>  <assay.readout>
IC50

>  <measurement>
0.1 to 1 µM

$$$$
>  <molecule>
C=CC(=O)N1CCOC2(CCN(C(=O)N(C)[C@H](C(=O)N[C@H]3Cc4cc(C(F)F)cc(n4)-c4ccc5c(c4)c(c(-c4cccnc4[C@H](C)OC)n5CC(F)(F)F)CC(C)(C)COC(=O)[C@@H]4CCCN(N4)C3=O)C(C)C)CC2)C1 (atropisomer, axis not shown) [Example A541]

>  <assay.readout>
IC50

>  <measurement>
0.1 to 1 µM

$$$$
>  <molecule>
C=CC(=O)N1C[C@@H](C)N(C(=O)N(C)[C@H](C(=O)N[C@H]2Cc3nc(cs3)-c3ccc4c(c3)c(c(-c3cccnc3[C@H](C)OC)n4CC)CC(C)(C)COC(=O)[C@@H]3CCCN(N3)C2=O)C(C)C)[C@@H](C)C1 (atropisomer, axis not shown) [Example A387]

>  <assay.readout>
IC50

>  <measurement>
0.01 to 0.1 µM

$$$$
>  <molecule>
C=CC(=O)N1CC[C@]2(C1)OCN([C@H](C(=O)N[C@H]1Cc3cccc(c3)-c3ccc4c(c3)c(c(-c3cccnc3[C@H](C)OC)n4CC)CC(C)(C)COC(=O)[C@@H]3CCCN(N3)C1=O)C(C)C)C2=O (atropisomer, axis not shown) [Example A371]

>  <assay.readout>
IC50

>  <measurement>
0.01 to 0.1 µM

$$$$
>  <molecule>
CCn1c(-c2cnccc2COC)c2c3cc(ccc31)-c1ccnc(c1)C[C@H](NC(=O)[C@H](C(C)C)N(C)C(=O)[C@H]1CCN(C(=O)C#CCN(C)C)C1)C(=O)N1CCC[C@H](N1)C(=O)OCC(C)(C)C2 [Example A130]

>  <assay.readout>
IC50

>  <measurement>
< 0.01 µM

$$$$

// moving on: another record for IC50
(Q) GET /values?readout=IC50&item= CCn1c(-c2cccnc2[C@H](C)OC)c2c3cc(ccc31)-c1csc(n1)C[C@H](NC(=O)[C@H](C(C)C)N(C)C(=O)N1CC(N(C)C(=O)/C=C/CN(C)C)C1)C(=O)N1CCC[C@H](N1)C(=O)OCC(C)(C)C2 (atropisomer, axis not shown) [Example A710]
(A) 0.01 to 0.1 µM
